This section presents molecules with their documented pIC50 values.
measured.target: Sortase A (Staphylococcus aureus, UniProt Q9S446, DELTAN24)
assay: Inhibition of Staphylococcus aureus SrtA delta N24 mutant expressed in Escherichia coli BL21 (DE3) assessed as reduction in IsdA (64 to 323 residues) transpeptidation incubated for 20 mins by SDS-PAGE analysis
// field semantics: pIC50 = negative decimal log of concentration (mol/L)

Examples with answers:
{"columns": ["structure.as.smiles", "measured.quantity", "reported.value"],
 "data": [
  ["O=c1sn(-c2cccc3ccccc23)c(=O)n1CCc1ccccc1", "pIC50", 4.56],
  ["O=c1sn(Cc2ccccc2)c(=O)n1CCCl", "pIC50", 4.78],
  ["CCCCn1c(=O)sn(-c2c(C)noc2C)c1=O", "pIC50", 5.39]
]}

Okay, next one:
Q) Kindly indicate its recorded pIC50. Item: "O=c1sn(-c2cccc3ccccc23)c(=O)n1Cc1ccc(Cl)cc1"
A) 4.64

----------
measured.target: Sortase A (Staphylococcus aureus, UniProt Q9S446, DELTAN24)
assay: Inhibition of Staphylococcus aureus SrtA delta N24 mutant expressed in Escherichia coli BL21 (DE3) assessed as reduction in IsdA (64 to 323 residues) transpeptidation incubated for 20 mins by SDS-PAGE analysis
This section presents molecules with their documented IC50 values.

{"columns": ["structure.as.smiles", "measured.target", "IC50"],
 "data": [
  ["O=c1sn(-c2cccc3c2OCO3)c(=O)n1Cc1ccccc1", "Sortase A (Staphylococcus aureus, UniProt Q9S446, DELTAN24)", "4.7 µM"],
  ["Cn1c(=O)sn(-c2cccc3ccccc23)c1=O", "Sortase A (Staphylococcus aureus, UniProt Q9S446, DELTAN24)", "8 µM"],
  ["O=c1sn(-c2cccc3ccccc23)c(=O)n1Cc1ccc(O)cc1", "Sortase A (Staphylococcus aureus, UniProt Q9S446, DELTAN24)", "4.7 µM"]
]}

Q) Kindly indicate its recorded IC50. Item: "Cc1noc(C)c1-n1sc(=O)n(Cc2ccccc2Cl)c1=O"
A) 3.7 µM

Q) Kindly indicate its recorded IC50. Item: "O=c1sn(Cc2ccccc2)c(=O)n1Cc1ccccc1"
A) 12.9 µM

Q) Kindly indicate its recorded IC50. Item: "Cn1c(=O)sn(Cc2ccccc2)c1=O"
A) 23.6 µM

Q) Kindly indicate its recorded IC50. Item: "O=c1sn(Cc2ccccc2)c(=O)n1Cc1ccccc1Cl"
A) 28 µM

Q) Kindly indicate its recorded IC50. Item: "CCCCn1c(=O)sn(Cc2ccccc2)c1=O"
A) 21.2 µM

Q) Kindly indicate its recorded IC50. Item: "CCCCn1sc(=O)n(CCCC)c1=O"
A) > 50 µM

----------
This section presents molecules with their documented IC50 values.
measured.target: Sortase A (Staphylococcus aureus, UniProt Q9S446, DELTAN24)
assay: Inhibition of Staphylococcus aureus SrtA delta N24 mutant expressed in Escherichia coli BL21 (DE3) assessed as reduction in IsdA (64 to 323 residues) transpeptidation incubated for 20 mins by SDS-PAGE analysis

{"columns": ["structure.as.smiles", "IC50"],
 "data": [
  ["CC(C)n1c(=O)sn(Cc2ccccc2)c1=O", "> 50 µM"],
  ["O=c1sn(Cc2ccccc2)c(=O)n1-c1cccc(F)c1", "> 50 µM"],
  ["O=c1sn(CCc2ccccc2)c(=O)n1C1CCCCC1", "> 50 µM"],
  ["Cc1noc(C)c1-n1sc(=O)n(C(C)C)c1=O", "> 50 µM"],
  ["O=c1sn(C2CCCC2)c(=O)n1C1CCCCC1", "> 50 µM"],
  ["CCn1sc(=O)n(Cc2ccc(C)cc2)c1=O", "> 50 µM"],
  ["CCn1c(=O)sn(-c2cccc3ccccc23)c1=O", "8.2 µM"],
  ["O=c1sn(CCc2ccccc2)c(=O)n1Cc1ccccc1", "42.7 µM"]
]}

Q) Kindly indicate its recorded IC50. Item: "O=c1sn(-c2cccc3ccccc23)c(=O)n1Cc1cccc(O)c1"
A) 9.2 µM

Q) Kindly indicate its recorded IC50. Item: "CCn1sc(=O)n(CCc2ccccc2)c1=O"
A) > 50 µM

Q) Kindly indicate its recorded IC50. Item: "CCn1sc(=O)n(Cc2ccc(Cl)cc2)c1=O"
A) > 50 µM

Q) Kindly indicate its recorded IC50. Item: "Cc1ccc(Cn2c(=O)sn(-c3c(C)noc3C)c2=O)cc1"
A) 4.7 µM

Q) Kindly indicate its recorded IC50. Item: "CCCCn1c(=O)sn(-c2cccc3ccccc23)c1=O"
A) 12.6 µM

Q) Kindly indicate its recorded IC50. Item: "CC(C)n1c(=O)sn(CCc2ccccc2)c1=O"
A) > 50 µM
